This collection of values is drawn from patent US9045483B2.

- Target under test: SUMO E1 (Homo sapiens (Human))
- Sequence (Q9UBT2 whole entry): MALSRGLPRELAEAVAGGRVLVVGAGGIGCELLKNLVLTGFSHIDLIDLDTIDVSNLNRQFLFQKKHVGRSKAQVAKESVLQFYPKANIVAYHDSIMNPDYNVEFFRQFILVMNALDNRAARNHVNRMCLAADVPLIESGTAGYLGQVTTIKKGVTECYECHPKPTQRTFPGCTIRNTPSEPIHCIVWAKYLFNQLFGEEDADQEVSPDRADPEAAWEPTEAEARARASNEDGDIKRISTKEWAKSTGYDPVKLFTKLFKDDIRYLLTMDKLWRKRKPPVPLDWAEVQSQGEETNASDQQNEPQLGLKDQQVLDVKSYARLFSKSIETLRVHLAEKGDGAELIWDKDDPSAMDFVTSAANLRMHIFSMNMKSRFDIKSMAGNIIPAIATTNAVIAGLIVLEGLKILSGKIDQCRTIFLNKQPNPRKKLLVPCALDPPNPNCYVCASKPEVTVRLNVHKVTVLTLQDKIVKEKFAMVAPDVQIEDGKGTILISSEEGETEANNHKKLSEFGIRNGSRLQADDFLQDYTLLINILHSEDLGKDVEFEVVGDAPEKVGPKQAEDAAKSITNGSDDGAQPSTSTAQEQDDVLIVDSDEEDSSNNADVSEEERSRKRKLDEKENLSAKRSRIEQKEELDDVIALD
- Sequence (Q9UBE0 whole entry partner): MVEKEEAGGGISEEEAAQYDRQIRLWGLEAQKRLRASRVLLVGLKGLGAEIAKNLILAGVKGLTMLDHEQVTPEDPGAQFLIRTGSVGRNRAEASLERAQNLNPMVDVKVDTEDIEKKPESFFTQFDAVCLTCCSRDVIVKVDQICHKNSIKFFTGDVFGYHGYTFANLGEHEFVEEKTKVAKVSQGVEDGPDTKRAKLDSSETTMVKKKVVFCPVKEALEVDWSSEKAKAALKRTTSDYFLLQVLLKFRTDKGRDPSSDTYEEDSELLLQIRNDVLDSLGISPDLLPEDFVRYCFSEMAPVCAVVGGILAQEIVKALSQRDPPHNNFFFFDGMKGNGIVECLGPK
- Assay name: SUMO E1 inhibition, formation of the Ubc9-SUMO thioester (biochemical assay)
- Conditions used: in vitro; read-out: IC50 for SUMO E1
Field: log10 of IC50. Provide a value for each of the compounds that follow.
Annotation: log10 of IC50, µM basis.

For every item below, please supply its log10 of IC50.
1. CCCCn1c(N)c(S(=O)(=O)c2ccccc2)c2nc3ccccc3nc21
2. CCCCn1c(NC(=O)c2ccccc2)c(C#N)c2nc3ccccc3nc21
3. CCCCNC(=O)c1c(NC(=O)c2ccccc2Cl)n(Cc2ccccc2)c2nc3ccccc3nc12

Response:
1.81
0.56
0.04

For every item below, please supply its log10 of IC50.
1. CCCCn1c(NC(C)=O)c(C#N)c2nc3ccccc3nc21
2. CCCCn1c(NC(=O)c2ccccc2Cl)c(C#N)c2nc3ccccc3nc21

Response:
[0.92, 1.30]
